Test system: NCI-H23 lung
Assay: NCI tumour cell line growth inhibition, 48 h; in the data active = GI50 below about 0.43 µM; inactive = the rest
Outcome codes: active, inactive

Compound: CSc1nc(-c2cc3ccccc3o2)cc(-c2ccc(Cl)cc2)c1C#N
Group: inactive
//
Compound: C=CCN1C(=O)c2cccc3c(N4CCOCC4)ccc(c23)C1=O
Group: active
//
Compound: C=CC(=O)N1CCN(CCCn2c(=O)c(-c3c(Cl)c(OC)cc(OC)c3Cl)cc3cnc(NC)nc32)CC1
Group: inactive
//
Compound: Nc1ccc(S(=O)(=O)c2ccc(N)cc2)cc1
Group: inactive
//
Compound: NC(N)=NN=C(c1ccccc1)c1ccccc1
Group: inactive
//
Compound: C[CH2][Sn]([CH2]C)([O]C(=O)c1ccccc1F)[O]C(=O)c1ccccc1F
Group: inactive
//
Compound: O=C1/C=C/[C@@H](O)[C@@H]2C[C@@H](O)C[C@H]2/C=C/CCC[C@H](CCOCc2ccccc2)O1
Group: active
//
Compound: O=C(c1ccc(Cl)c(Cl)c1)N1CCN(C(=O)c2ccc(Cl)c(Cl)c2)C1=S
Group: inactive
//
Compound: COc1cccc2[nH]c3c4c(c5c(c3c12)C(=O)N(CN1CCN(C)CC1)C5=O)CCC4
Group: inactive
//
Compound: CCOc1cc(F)c([N+](=O)[O-])cc1[N+](=O)[O-]
Group: inactive
//
Compound: COc1cccc(C2=C(c3cn(C)c4ccc(Cl)cc34)C(=O)NC2=O)c1
Group: inactive
//
Compound: O=C(Nc1ccc2[nH]c3ccccc3c2c1)c1ccccc1Cl
Group: inactive
//
Compound: COc1cc(C=C2C(=O)NC(=O)NC2=O)ccc1OCc1ccccc1
Group: inactive
//
Compound: COc1cccc2c1C(=O)c1c(O)c3c(c(O)c1C2=O)C[C@@](O)(C(=O)CO)C[C@@H]3OC1CC2C(OCN3CN2COC2C(C)OC(O[C@H]4C[C@](O)(C(=O)CO)Cc5c(O)c6c(c(O)c54)C(=O)c4c(OC)cccc4C6=O)CC23)C(C)O1 (stereo partly specified)
Group: active
//
Compound: Cc1ccc(S(=O)(=O)c2ccccc2)cc1
Group: inactive
//
Compound: CNC(=O)c1ccccc1Nc1cc(Nc2ccc(N3CCOCC3)cc2OC)ncc1C(F)(F)F
Group: inactive
